- Test system: TO-N3 (biotin conjugate)
- measurementDescription: pull-down binding Z-score (relative to library population); higher = stronger binding
- conditionDescription: RNA library: Library-2
measuredQuantity: pull-down binding Z-score
Numbers only.

Query: For GGGUCGUGGGAAAGUGUUGACCC [hsa-mir-4655] , what is its reported pull-down binding Z-score?
Response: 0.5

Query: For CGGGCUGAUUGCGCUAACAGUGGCCCC [hsa-mir-4783] , what is its reported pull-down binding Z-score?
Response: 0.248

Query: For CACACGCUUUAUUUGUGCCGUUUG [hsa-mir-758] , what is its reported pull-down binding Z-score?
Response: -0.164

Query: For GGUAAUUAUACAGUUUCCUGUUUACC [DMSMaPseq_invitro_SARS-CoV-2_Motif_504] , what is its reported pull-down binding Z-score?
Response: -1.05

Query: For UGAGGAGUAGAACACUCCUUA [hsa-mir-491] , what is its reported pull-down binding Z-score?
Response: -0.649

Query: For CUUCUUACUGCACCAGUGAAG [hsa-mir-5683] , what is its reported pull-down binding Z-score?
Response: -0.0796

Query: For GCAGCCAGUCCUGUCUCACCGC [hsa-mir-6812] , what is its reported pull-down binding Z-score?
Response: 0.14

Query: For CGGACACCCGGCCUCCACUUUCUGUGGCAGGUACCUCCUCCA [hsa-mir-4505] , what is its reported pull-down binding Z-score?
Response: 1.05

Query: For CCUUGCCUGUGGCAAGACCACUUCGGUUCAAGG [hsa-mir-4295] , what is its reported pull-down binding Z-score?
Response: 0.0379

Query: For AACAUACAUUUGUCUUGGUGUGUU [hsa-mir-4684] , what is its reported pull-down binding Z-score?
Response: -1.44

Provide reported pull-down binding Z-score for each item, in the same order as listed.
1. GGACAGGGAUUCUUUUCACUGUU [hsa-mir-599]
2. CUGGCCAUCAGUGUGGGCUAAC [hsa-mir-6732]
3. CUCAUUGUUGAAUGGAAUGAGAU [hsa-mir-3145]
4. UUUUCAGUUCCUGAGAUC [hsa-mir-4287]
5. UAGGUUUUUCUACAGGUGUUAACCUA [SHAPE_invitro_SARS-CoV-2_Motif_336]

Response:
1. 0.141
2. 0.33
3. -0.571
4. -0.128
5. -0.981

Provide reported pull-down binding Z-score for each item, in the same order as listed.
1. AAGGAUGCUACUCCUU
2. GUUACUGUGGGAACUGGAGGUAAC [hsa-mir-132]
3. AGUAGCUGGGAAUACAGGUGUGUGCCACCAUGCCUCUACAAGCUACC [hsa-mir-7851]

Response:
[-1.32, 1.1, -0.0861]

Provide reported pull-down binding Z-score for each item, in the same order as listed.
1. CCUGUGAACAGAUUGCUGACUCCCAGCAUCGGUCUCAUAGG [IAV_invivo_M1_M2_7_Motif_10+IAV_invivo_M1_M2_7_Motif_10]
2. CCUCGAAGCUGCCUUUAGAAAUGAGG [hsa-mir-4496]
3. AUCUUAGGGAAUUUGUGUUUAAGAAUAUUGAUGGUUAUUUUAAAAUAUAUUCUAAGCACACGCCUAUUAAUUUAGUGCGUGAUCUCCCUCAGGGU

Response:
1: -0.943; 2: 0.176; 3: -0.897

###

- System: TO-3-N3-2 (biotin conjugate)
- measurementDescription: pull-down binding Z-score (relative to library population); higher = stronger binding
- conditionDescription: RNA library: Library-2
Returns one of Yes or No; Yes when pull-down binding Z-score is >= -0.3.

Query: Decide: pull-down binding Z-score of AGGCCGACGAGCAGCGCAUCCUCUUACCCGGCUA [hsa-mir-138-2] >= -0.3?
Response: Yes

---
Query: Decide: pull-down binding Z-score of UGGAGGAGUCUGGUGGCCUGUUCUCUU [hsa-mir-6754] >= -0.3?
Response: Yes

###

- Tested on: TO-N3-2 (biotin conjugate)
- measurementDescription: pull-down binding Z-score (relative to library population); higher = stronger binding
- conditionDescription: RNA library: Library-2
Returns one of 1 or -1; 1 when pull-down binding Z-score is >= 0.06.

Query: Decide: pull-down binding Z-score of GAAGCCGCUCCCACCUGACCCUCACGGCCUC [hsa-mir-3605] >= 0.06?
Response: 1

Query: Decide: pull-down binding Z-score of UAACACCAGGAACAAAUACUUCUAACCAGGUUGCUGUUCUUUAUCAGGGUGUUA [SHAPE_invivo_SARS-CoV-2_Motif_440] >= 0.06?
Response: -1

Query: Decide: pull-down binding Z-score of GGCGGCUCGGAGUACCUCUGCCGCC [hsa-mir-6869] >= 0.06?
Response: -1

Query: Decide: pull-down binding Z-score of `GUUGCGUCACCAAAUGAAUGCAAC` >= 0.06?
Response: -1

---
Query: Decide: pull-down binding Z-score of UUUGUGGGGCGAGGAGGGACCUGUACUAGCCAUGGUUCUGAUCACAUAUG [hsa-mir-6834] >= 0.06?
Response: 1

Query: Decide: pull-down binding Z-score of CACAGAGUAAGCAUCAAUAGCAUUGGCAAGUUGAACUGAGCUGUC [hsa-mir-6895] >= 0.06?
Response: 1

Query: Decide: pull-down binding Z-score of UCCCUUCCUGGACACACAGGAGGAGA [hsa-mir-5680] >= 0.06?
Response: -1

Query: Decide: pull-down binding Z-score of AAACGUGCUCAGUGUCUUUAUAACAGGAAAGCCGUAAAC [hsa-mir-1272] >= 0.06?
Response: 1

###

- Tested on: TO-N3 (biotin conjugate)
- measurementDescription: pull-down binding Z-score (relative to library population); higher = stronger binding
- conditionDescription: RNA library: Library-2
Returns one of 1 (yes) or 0 (no); 1 (yes) when pull-down binding Z-score is >= 0.5.

Example results:
Query: Decide: pull-down binding Z-score of UUGAUGUCAGAAUGAGGUGUACCAA [hsa-mir-4714] >= 0.5?
Response: 0 (no)

Query: Decide: pull-down binding Z-score of `CCAAGGAAAUUUUGG` >= 0.5?
Response: 0 (no)

Query: Decide: pull-down binding Z-score of `UGUGGACAUGUCAAUGACAUAUGGACAACAGUUUGGUCCAACUUAUUUGGAUGGAGCUGAUGUUACUAAAAUAAAACCUCAUAAUUCACA` >= 0.5?
Response: 0 (no)

Query: Decide: pull-down binding Z-score of GGUUGUUAGAUAGACAACU [hsa-mir-4510] >= 0.5?
Response: 0 (no)

Query: Decide: pull-down binding Z-score of ACACUGCGCUGCCCCAGACCCACUGU [hsa-mir-210] >= 0.5?
Response: 1 (yes)

Query: Decide: pull-down binding Z-score of AUGGUCUCUAUAUUUAUGAUGAUUAA [hsa-mir-889] >= 0.5?
Response: 1 (yes)

---
Query: Decide: pull-down binding Z-score of AGUCCAAAGGAAAGGGCU [hsa-mir-8077] >= 0.5?
Response: 1 (yes)

Query: Decide: pull-down binding Z-score of UUGGGAUCCACCUUUCUCUCGA [hsa-mir-196b] >= 0.5?
Response: 0 (no)

Query: Decide: pull-down binding Z-score of AAUAAAGUAUGUCCACAGCUGAAAGGACAUACUUUAUU [hsa-mir-4464] >= 0.5?
Response: 0 (no)

Query: Decide: pull-down binding Z-score of AGGCCAUACGUGUUGGAGAUU [hsa-mir-4461] >= 0.5?
Response: 1 (yes)

Query: Decide: pull-down binding Z-score of GUGUUUAUUUUUUACUAAAUAG [hsa-mir-4766] >= 0.5?
Response: 0 (no)

Query: Decide: pull-down binding Z-score of AUGUCUCAGGUCCCCAGCUGAGUCAA [hsa-mir-6513] >= 0.5?
Response: 1 (yes)

Query: Decide: pull-down binding Z-score of GGAGACGGGUCUUUCUC [hsa-mir-1208] >= 0.5?
Response: 1 (yes)

Query: Decide: pull-down binding Z-score of GGGGUUUUUGCCUCCAACUGACUCC [hsa-mir-155] >= 0.5?
Response: 0 (no)

Query: Decide: pull-down binding Z-score of CAGGGGUUCUGAUAAACCCUUC [hsa-mir-6738] >= 0.5?
Response: 0 (no)

Query: Decide: pull-down binding Z-score of GCGCUGCCAGAAACUGGCGGAGCGC [bulge-GG] >= 0.5?
Response: 0 (no)

Query: Decide: pull-down binding Z-score of UGUUUCUUUAUUGAGGACGAAACA [hsa-mir-329-2] >= 0.5?
Response: 0 (no)

Query: Decide: pull-down binding Z-score of `GCGCUUCAGCGUUCUUCGGAAUGUCGCGC` >= 0.5?
Response: 0 (no)

Query: Decide: pull-down binding Z-score of CCUGCCUGCCCUCCAGGUCAUGUUCCAGUGUCCCACAGAUGCAGCACCACGG [hsa-mir-6075] >= 0.5?
Response: 1 (yes)
